What EC50 was measured for each of the following?
Biological target: T1, MSLN on SKOV3 and Aspc-1 tumor cells (UniProt Q13421 296-598)
T1 construct: whole, on cells; Endogenous mesothelin of tumor cell lines; also called SKOV3 tumor cell line; AsPC-1 tumor cell line
T1 sequence (Q13421 other isoform, or with tags, fused parts or gaps limits assumed): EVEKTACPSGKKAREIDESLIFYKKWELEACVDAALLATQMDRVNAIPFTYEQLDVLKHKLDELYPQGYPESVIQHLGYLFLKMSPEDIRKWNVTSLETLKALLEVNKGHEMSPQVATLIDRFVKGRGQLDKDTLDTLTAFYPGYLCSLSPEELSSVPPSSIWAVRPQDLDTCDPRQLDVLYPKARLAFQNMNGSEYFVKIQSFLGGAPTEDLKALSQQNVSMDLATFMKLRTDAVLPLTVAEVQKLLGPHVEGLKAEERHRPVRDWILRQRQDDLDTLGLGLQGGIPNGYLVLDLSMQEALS
Experiment: flow cytometry on SKOV3 tumor cells, anti-human IgG PE secondary, fitted curve
Please answer in the form of a number followed by its unit of measurement.

Task item: // lookup EC50 for M156-IgG4 (antibody, V domains shown, also called M156 heavy chain antibody) VH: QVQLVESGGGLVQAGGSLRLSCAVSGISFEYYAIGWFRQAPGKEREAVSCTTSGTTSGGGVTDYADSLKGRFTISRDVAKNTVYLQMNNLTPEDTAVYYCAADIHCRGYVLFVPSDFGNWGQGTQVTVSS
Reply: 1.05 nM

Task item: Returns the measured EC50 for the input binder. Input: M119-IgG4 (antibody, V domains shown, also called M119 heavy chain antibody) VH: EVQLVESGGGLVQPGGSLRLSCVASGSDLSFDAMGWYRQFSATVRERQLVVATSRDGRIYYGDSVKGRFTASRDNLKNSVDLEMNNLKPEDTAIYYCAAGDDPKNYDWGPGTQVTVSS
Reply: 1.63 nM

Task item: So what's the measured EC50 for this one? M003-IgG4 (antibody, V domains shown, also called M003 heavy chain antibody) VH: QVQLVESGGGLVQAGGSLRLSCTASGNIFSINAMGWYRQPPGKEWERELVATISSTNSDNTYYKESVKGRFTISTNTAKNTWYLQMNSLKPEDTAMYYCAAENFDRKDRYWAQGTQVTVSS
Reply: 1.62 nM

Task item: Recorded EC50 for M044-IgG4 (antibody, V domains shown, also called M044 heavy chain antibody) VH: QVQVVESGGGFVQAGGSLRLSCAASTPIISIAYMGWYRQISEKERQLVATINSGGKTYYADSVKGRFTISRDNAKNTLYLQMNMLKPEDTGMYYCAASNKDYNDYDPDWGQGTQVTVSS , please?
Reply: 0.512 nM

Task item: What measured EC50 goes with M129-IgG4 (antibody, V domains shown, also called M129 heavy chain antibody) VH: QVQLVESGGGSAQAGGSLILSCVASANLFTIDALGWYRQAPGPKRELVAAISSGGNKYYADAVKGRFTISRDTLTKTMWLQMNNLKPEDTAMYYCAAEDYGLGQRSWGMGTQVTVSS ?
Reply: 1.85 nM

Task item: Given M344-IgG4 (antibody, V domains shown, also called M344 heavy chain antibody) VH: QVQLVESGGGLVQSGGSLRLSCVASGSAFSFDAMGWYRQFSATRRERQLVVATSRDGRTYYADSVKGRFTATRDNSKNSLYLEMNSLKPEDTAIYYCAAGDDPKNYSWGQGTQVTVSS , state its recorded EC50.
Reply: 1.36 nM
